System: NCI-H226 lung
ASSAY OVERVIEW: NCI tumour cell line growth inhibition, 48 h
MEASURED ENDPOINT: GI50

The observed GI50 for COc1ccc(C2CC(=O)c3c(OC)cc(OC)cc3O2)cc1 (stereo not drawn) when tested with NCI-H226 lung stands at > 100 µM

Measured GI50 for this entry COc1cccc(NCc2nnc(Nc3ccc(Cl)cc3)c3ccccc23)c1 on NCI-H226 lung: 0.956 µM

The value of GI50 recorded for COc1cc(-c2c(C#N)c(N)n3c(nc4ccccc43)c2C#N)cc(Br)c1OC when tested on NCI-H226 lung reads > 100 µM

---

Test system: NCI-H23 lung
ASSAY OVERVIEW: NCI tumour cell line growth inhibition, 48 h
MEASURED ENDPOINT: TGI (µM)
Please give a number only; it is taken to be in µM.

Record summary for CCOC(=O)Cn1sc2ncc([N+](=O)[O-])cc2c1=O : reported TGI = 39.3

The reported value for CC(C)CCN=c1cc2n(-c3ccc(Cl)cc3)c3ccccc3nc-2cc1Nc1ccc(Cl)cc1 in terms of TGI is 12.1

---

Tested on: TK-10 renal
ASSAY OVERVIEW: NCI tumour cell line growth inhibition, 48 h
MEASURED ENDPOINT: TGI

CC(=O)OCC1OC(N2C(c3ccccc3)=CC(c3ccccc3)C(C#N)=C2S)C(OC(C)=O)C(OC(C)=O)C1OC(C)=O (stereo not given) has a reported TGI of 50.1 µM

Value of measured TGI for the entry NCCc1nc(-c2nc(C(=O)O)cs2)cs1 : > 100 µM

TGI recorded for this compound, NCCCCn1c2c(c3ccccc3c1=O)C(=O)c1ccccc1-2 , is 1.25 µM

get_value(item= CNC(=O)N1CCN(C(=O)NC)CCN(C(=O)NC)CC1 , readout=TGI) returns > 100 µM

Noted for C[N+](C)(N)CCC[N+](C)(C)N : its TGI reads > 100 µM

TGI reading for Cc1c(Cc2ccccc2)n(COCCCO)c(=O)[nH]c1=O : > 100 µM

The compound CO/N=C(\C(=O)Nc1cncs1)c1csc(NC(c2ccccc2)(c2ccccc2)c2ccccc2)n1 showed TGI equal to > 10 µM

// TGI value for O=C(CNc1ccc(Cl)cc1)Nn1c(-c2ccccc2)nc2ccccc2c1=O : 30.5 µM

The recorded TGI for entry N#C/C(C(=S)Nc1ccccc1)=C1/NN=C2c3ccccc3C(=O)NN21 equals 50.4 µM

TGI for COc1ccc(C2CC(=O)c3c(OC)cc(OC)cc3O2)cc1 (stereo not given) is > 100 µM

Per the record, Cc1cc(C2CCCCC2)n(O)c(=O)c1 has TGI of > 100 µM

For COc1cc([N+](=O)[O-])ccc1NC(=O)C(F)(F)F the compound record lists TGI as > 100 µM

So for CCCN(CCCCC(NC(C)=O)C(=O)NCc1ccccc1)C(=O)N(CCCl)N=O (stereo not given) , the logged TGI turned out to be > 100 µM

The compound listed as S=C(/N=c1/sc(Nc2ccccc2)nc2sc3c(c12)CCCC3)Nc1ccccc1 shows TGI equal to > 62.5 µM

Lab note: measured TGI of O=C(Nc1ccc2nc(-c3ccccc3)cn2c1)Oc1ccccc1 was > 100 µM

response.value for COc1ccc(-c2c(C#N)c(NC(=S)NC(=O)c3ccccc3)nc3c2CCCC3)cc1OC (field: TGI) = > 100 µM

Record summary for Cc1cccc(N2C(=O)C(Cl)=C(Cl)C2=O)c1 : reported TGI = > 100 µM

TGI reported for this compound COC(=O)[C@]12CCC(C)(C)C[C@H]1C1=CC[C@@H]3[C@@]4(C)C/C(=C/c5cccnc5)C(=O)C(C)(C)[C@@H]4CC[C@@]3(C)[C@]1(C)CC2 : 55.5 µM

response.value for CC(C(=O)N1c2ccccc2Sc2ccccc21)N1c2ccccc2Sc2ccccc21 (stereo not given) (field: TGI) = > 100 µM

# compound COc1ccc(-c2cc3c(nn2)-c2ccccc2C3=O)cc1 ; its TGI = > 100 µM
